System: MCF7 breast
Assay: NCI-60 one-dose screen, 48 h (100 = growth as untreated, 0 = no growth, -100 = all killed)
Conditions: 10 µM
The panel holds about 83,000 compounds, 20% with a hit somewhere; the sample as a whole holds those more often.

>  <Compound>
Nc1nc(-c2ccccc2Br)nn1-c1nc2ccccc2s1

>  <growth, %>
78.4

$$$$
>  <Compound>
O=c1oc2ccc(-c3ccc(F)cc3F)cc2c(=O)n1-c1ccc(Cl)c(C(F)(F)F)c1

>  <growth, %>
7.27

$$$$
>  <Compound>
COc1ccc(C(=O)C2CC2c2ccc(Cl)cc2)cc1 (stereo not given)

>  <growth, %>
103

$$$$
>  <Compound>
Cc1ccc2[nH]c(=O)cc(-n3nncc3Cn3c4ccccc4c4ccccc43)c2c1

>  <growth, %>
99.5

$$$$
>  <Compound>
O=C(Nc1ccc(-c2nc3ccc(NC(=O)c4ccc(Cl)cc4)cc3[nH]2)cc1)c1ccc(Cl)cc1

>  <growth, %>
14.4

$$$$
>  <Compound>
O=Cc1c(OCc2cnnn2CC(=O)Nc2ccc(Cl)cc2)ccc2ccccc12

>  <growth, %>
81.5

$$$$
>  <Compound>
COc1cc(/C=C2\CN(S(=O)(=O)c3ccccc3)C/C(=C\c3cc(CN4CCCC4)c(O)c(OC)c3)C2=O)cc(CN2CCCC2)c1O

>  <growth, %>
5.38

$$$$
>  <Compound>
COC(=O)/C(=C\c1c(C)[nH]c2ccccc12)S(=O)(=O)c1ccccc1

>  <growth, %>
6.71

$$$$
>  <Compound>
O=c1c2cccc(F)c2sc2c(N3CCNCC3)nc3ccccc3c12

>  <growth, %>
-20.6

$$$$
>  <Compound>
CSc1nc2c(c(=O)[nH]1)N=C1c3ccccc3C(=O)C1C(c1ccccc1)N2 (stereo not given)

>  <growth, %>
17.3

$$$$
>  <Compound>
Cn1c(/C=C(\C#N)c2ccccc2)nc2c(N3CCOCC3)nc(Cl)nc21

>  <growth, %>
-57.7

$$$$
>  <Compound>
NCCNc1nc2ccc(F)cc2c2c(=O)c3cc(F)ccc3sc12

>  <growth, %>
-15.2

$$$$
>  <Compound>
O=C(c1nc2ccccc2[nH]1)C1C(c2ccc([N+](=O)[O-])cc2)C2CC3CCCCC3N2[C@@]12C(=O)Nc1cc(Cl)ccc12 (stereo not given in full)

>  <growth, %>
7.25

$$$$
>  <Compound>
COc1cc(-c2c3c(c(Br)n2Cc2ccccc2)-c2nc(N)sc2CC3)cc(OC)c1OC

>  <growth, %>
61.4

$$$$
>  <Compound>
CC1=NCC2NC(=O)NC(C)=C12 (stereo not given)

>  <growth, %>
111

$$$$
>  <Compound>
NC(CCc1nc2ccccc2c(=O)[nH]1)C(=O)O (stereo not given)

>  <growth, %>
105

$$$$
>  <Compound>
Nc1ccc(C2c3ccccc3Oc3ccccc32)cc1

>  <growth, %>
104

$$$$
>  <Compound>
COc1ccc(-n2c(C(O)c3ccccc3)nn(CN3CCOCC3)c2=S)cc1 (stereo not given)

>  <growth, %>
105

$$$$
>  <Compound>
COc1cccc(/C=C/C(=O)c2c(C)nc3ccccc3c2/C=C/c2ccccc2)c1OC

>  <growth, %>
13.9

$$$$
>  <Compound>
Cn1nc(C(C)(C)C)cc1NC(=O)Cc1ccc(/C=C2\C(=O)Nc3ccccc32)cc1

>  <growth, %>
19.2

$$$$
>  <Compound>
O=c1oc2ccc(F)cc2c(=O)n1-c1ccc(Cl)cc1F

>  <growth, %>
2.65

$$$$
>  <Compound>
O=c1oc2ccc(F)cc2c(=O)n1-c1ccc(F)cc1F

>  <growth, %>
24.8

$$$$
>  <Compound>
NCCNc1nc2ccccc2c2c(=O)c3cc(F)cc(Cl)c3sc12

>  <growth, %>
-91.6

$$$$
>  <Compound>
O=c1c(-c2nc3ccccc3[nH]2)cc2ccccc2n1Cc1cn(Cc2ccc(F)cc2)nn1

>  <growth, %>
14.5

$$$$
>  <Compound>
OC(CNC1CCCCC1)Cn1c2ccc(I)cc2c2cc(I)ccc21 (stereo not given)

>  <growth, %>
69.9

$$$$
>  <Compound>
CCOC(=O)C1(Cc2ccccc2)CCN(Cc2cccc(OC)c2O)CC1

>  <growth, %>
13.9

$$$$
>  <Compound>
CCCCN1CCN(c2ccc3nc(-c4ccc5nc(-c6ccc(OCC)cc6)[nH]c5c4)[nH]c3c2)CC1

>  <growth, %>
1.77

$$$$
>  <Compound>
COc1ccc(C2=C(c3cccc(OC)c3)C(=O)c3ccc(C)nc3C2=O)cc1

>  <growth, %>
23.7

$$$$
>  <Compound>
O=C1/C(=C/c2ccc(O)cc2)COc2ccc(O)cc21

>  <growth, %>
51.6

$$$$
>  <Compound>
CC(C)Cn1c2c(c(=S)[nH]c1=O)CCC2

>  <growth, %>
109

$$$$
>  <Compound>
CCOC(=O)c1ccc(N=Cc2sc(=O)[nH]c2O)cc1

>  <growth, %>
92

$$$$
>  <Compound>
CN1CCN(Cc2ccc(C(=O)Nc3cncc(C#Cc4cnc(N)c5ccccc45)c3)cc2C(F)(F)F)CC1

>  <growth, %>
-68.3

$$$$
>  <Compound>
CN(C)c1ccc(N=Cc2ccc(N3CCOCC3)cc2)cc1

>  <growth, %>
39

$$$$
>  <Compound>
Clc1ccc(Oc2ccc(Nc3ncnc4onc(-c5ccccc5)c34)cc2)c(Cl)c1

>  <growth, %>
80.6

$$$$
>  <Compound>
COc1ccc(Cn2cc(Cn3c(=O)c(-c4nc5ccccc5[nH]4)cc4ccccc43)nn2)c(OC)c1OC

>  <growth, %>
17.1

$$$$

---

System: SN12C renal
Assay: NCI-60 one-dose screen, 48 h
Details: 10 µM unless noted
Compounds without any hit were thinned out: in the full panel of roughly 83,000, 20% have a hit. Active and inactive are the calls of the source. Rule for the calls: active = growth percent below 10; inactive = the rest.
Labels: 1 = active, 0 = inactive

>  <Molecule>
Cc1nc(Nc2cn[nH]c2C(=O)Nc2ccc(CN3CCN(C)CC3)cc2)c2ccsc2n1

>  <Group Label>
0

$$$$
>  <Molecule>
O=C(/C=C/c1ccccn1)c1ccc(OCc2nnc(-c3ccc(Cl)cc3)o2)cc1

>  <Group Label>
0

$$$$
>  <Molecule>
COc1c(B(O)O)cccc1-c1nc2ccc3[nH]ncc3c2c2c1C1CCC2C1 (stereo not given)

>  <Group Label>
0

$$$$
>  <Molecule>
CCOc1cc(Cl)c(C(C)NC(=O)c2cccc(OC)c2)cc1OCC (stereo not given)

>  <Group Label>
1

$$$$
>  <Molecule>
CN1CCN(c2nc(Nc3ccc(O)cc3)nc3ccccc23)CC1

>  <Group Label>
0

$$$$
>  <Molecule>
O=C(Nc1ccc(-c2nc3ccc(NC(=O)c4ccc(Cl)cc4)cc3[nH]2)cc1)c1ccc(Cl)cc1

>  <Group Label>
0

$$$$
>  <Molecule>
Cn1nc(C(C)(C)C)cc1NC(=O)Cc1ccc(/C=C2\C(=O)Nc3ccccc32)cc1

>  <Group Label>
0

$$$$
>  <Molecule>
O=C1N=c2ccccc2=C1c1sc(=Nc2ccccc2)n(Nc2ccccc2)c1O

>  <Group Label>
0

$$$$
>  <Molecule>
N#CC(C#N)=Cc1c(-c2ccccc2)[nH]c2ccccc12

>  <Group Label>
0

$$$$
>  <Molecule>
COc1c2ccoc2c(/C=C/C=O)c2oc(-c3ccccc3)cc(=O)c12

>  <Group Label>
0

$$$$

---

Tested on: K-562 leukemia
Test: NCI-60 one-dose screen, 48 h
Details: 10 µM unless noted
The panel holds about 83,000 compounds, 20% with a hit somewhere; the sample as a whole holds those more often. Active and inactive are the calls of the source. How the source made its calls: active means growth percent below 10; inactive means the rest.
Labels: active, inactive

>  <Compound>
CN(CCc1ccccc1)C(=S)N(C(=O)c1ccc([N+](=O)[O-])cc1)c1ccc(Cl)cc1

>  <Group Label>
inactive

$$$$
>  <Compound>
O=C(Nc1ncc(Cc2cccc(C(F)(F)F)c2)s1)C1COc2ccccc2O1 (stereo not drawn)

>  <Group Label>
inactive

$$$$
>  <Compound>
O=C(Cn1cc(COc2ncnc3c2cnn3-c2ccccc2)nn1)Nc1ccccn1

>  <Group Label>
inactive

$$$$
>  <Compound>
O=C(CCc1nnc2sc(-c3ccc(Cl)cc3Cl)nn12)c1nc2ncccc2[nH]1

>  <Group Label>
active

$$$$
>  <Compound>
CCCCCCn1c(=N)n(CC(O)COc2cccc(C)c2)c2ccccc21 (stereo not drawn)

>  <Group Label>
active

$$$$
>  <Compound>
Cc1nc(Nc2cn[nH]c2C(=O)Nc2ccc(CN3CCN(C)CC3)cc2)c2ccsc2n1

>  <Group Label>
inactive

$$$$
>  <Compound>
COc1ccc(C)c2sc(N(Cc3cccnc3)C(=O)c3ccc(C#N)cc3)nc12

>  <Group Label>
active

$$$$
>  <Compound>
O=c1oc2ccc(Br)cc2c(=O)n1-c1ccc(Cl)cc1F

>  <Group Label>
active

$$$$
